biological target: Retinoic acid receptor RXR-alpha (Homo sapiens); assay: OT_NURR1_NURR1RXRa_1440: Odyssey Thera (OT) 24-hour HEK293T Protein Complementation Assay for Nurr1/retinoid X receptor (RXR) (AID 2283386)
Records with an inconclusive call do not appear. The source made the active and inactive calls. The calls were made as follows: active = hit-call score of the fitted dose curve at least 0.9, where 1 is the maximum; inconclusive = response in the unintended direction; inactive = score below 0.9.
Entry note: the call must match one of active, inactive

For orientation, consider the following solved cases.
>  <COMPOUND>
O=C1NC(=O)c2ccccc21

>  <CLASS_LABEL>
inactive

$$$$
>  <COMPOUND>
CCCCCCCCCCCCCC(=O)O

>  <CLASS_LABEL>
inactive

$$$$
>  <COMPOUND>
COc1ccc(O)cc1

>  <CLASS_LABEL>
active

$$$$
>  <COMPOUND>
CCCCCCCCCCCCCCCC(=O)OC[C@H](O)[C@H]1OC(=O)C(O)=C1O

>  <CLASS_LABEL>
active

$$$$
>  <COMPOUND>
CC(C)c1cccc(O)c1

>  <CLASS_LABEL>
inactive

$$$$

Problem: Record lookup: outcome of this test for "CCCCOCCOCCOCCOCCO" ?
Result: inactive

Problem: Lab log entry: "CC(C)=CCC[C@](C)(O)[C@@H]1CC=C(C)CC1" — outcome as called in the assay?
Result: inactive

Problem: Assay outcome for "O=C(Oc1ccccc1)c1ccc(O)cc1" : what was it?
Result: inactive

Problem: Any idea what this test logged for "CC(=O)OCCOC(C)=O" ?
Result: inactive

Problem: Called result for "CCCCc1ccc(N)cc1"
Result: inactive

Problem: Record lookup: outcome of this test for "CC(C)(C)C(=O)c1ccccc1" ?
Result: inactive

Problem: Please state the recorded outcome for this compound: "CC(C)(C#N)c1cc(Cn2cncn2)cc(C(C)(C)C#N)c1"
Result: inactive

Problem: Can you look up the reported call for "CN(C)CCCN" for me?
Result: inactive

Problem: // return assay outcome for "O=C(O)CCCCCCCC(=O)O"
Result: inactive

Problem: GET /call?item= C=CC(C)(O)CCC=C(C)CCC=C(C)C (stereo not given) returns the recorded outcome of this test.
Result: active
